Reported EC50 values follow for various binders
biological target: T1, cynomolgus monkey CD3 on the surface of expanded monkey T cells (cynomolgus monkey, UniProt Q95LI5 22-198; Q95LI8 22-171; Q95LI7 23-181); assay: FACS, expanded monkey T cells
T1 construct: whole, on cells; Endogenous CD3 within the TCR-CD3 complex on T cells expanded from cynomolgus monkey PBMC
T1 sequence (Q95LI5 22-198, chain 1 of 3): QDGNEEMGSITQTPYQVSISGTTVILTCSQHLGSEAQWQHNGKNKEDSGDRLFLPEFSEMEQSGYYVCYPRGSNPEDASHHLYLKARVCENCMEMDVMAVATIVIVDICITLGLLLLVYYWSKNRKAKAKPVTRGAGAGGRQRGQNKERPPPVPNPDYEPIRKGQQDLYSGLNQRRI
T1 sequence (Q95LI8 22-171, chain 2 of 3): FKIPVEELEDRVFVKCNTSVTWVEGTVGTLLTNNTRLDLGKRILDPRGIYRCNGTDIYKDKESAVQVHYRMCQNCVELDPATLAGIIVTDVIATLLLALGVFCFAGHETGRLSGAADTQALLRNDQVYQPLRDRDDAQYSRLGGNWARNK
T1 sequence (Q95LI7 23-181, chain 3 of 3): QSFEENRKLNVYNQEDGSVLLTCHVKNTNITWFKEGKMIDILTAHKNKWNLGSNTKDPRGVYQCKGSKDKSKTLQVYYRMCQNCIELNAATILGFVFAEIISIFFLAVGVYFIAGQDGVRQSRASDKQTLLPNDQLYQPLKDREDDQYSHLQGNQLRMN
Give the value in nM but do not write nM after it.

Consider the following illustrative entries.
| binder | value-unit | EC50 |
| --- | --- | --- |
| 5-40.21-H3-L1 humanized antibody (antibody, human IgG1, kappa, V domains shown) VH: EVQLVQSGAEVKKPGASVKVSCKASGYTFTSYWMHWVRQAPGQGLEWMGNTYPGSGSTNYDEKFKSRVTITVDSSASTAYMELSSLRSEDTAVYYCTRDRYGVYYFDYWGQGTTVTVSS VL: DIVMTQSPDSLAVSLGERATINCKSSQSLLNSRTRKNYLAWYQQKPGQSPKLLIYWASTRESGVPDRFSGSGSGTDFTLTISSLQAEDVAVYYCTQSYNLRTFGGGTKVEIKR | nM | 0.73 |
| 1-22.6-1-H2a-L2a humanized antibody (antibody, human IgG1, kappa, V domains shown, also called 1-22.6-H2a-L2a) VH: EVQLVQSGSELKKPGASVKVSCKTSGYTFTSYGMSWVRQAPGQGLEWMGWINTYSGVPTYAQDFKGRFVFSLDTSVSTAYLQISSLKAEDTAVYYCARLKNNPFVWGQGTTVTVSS VL: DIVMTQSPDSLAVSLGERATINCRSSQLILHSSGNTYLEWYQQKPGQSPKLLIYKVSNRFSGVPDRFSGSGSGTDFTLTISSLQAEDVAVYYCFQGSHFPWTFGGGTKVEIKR | nM | 6.92 |
| 5-7.13-H1a-L2 humanized antibody (antibody, human IgG1, kappa, V domains shown) VH: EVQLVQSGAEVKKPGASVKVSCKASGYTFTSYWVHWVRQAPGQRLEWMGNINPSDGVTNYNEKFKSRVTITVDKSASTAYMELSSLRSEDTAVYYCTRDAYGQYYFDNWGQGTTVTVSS VL: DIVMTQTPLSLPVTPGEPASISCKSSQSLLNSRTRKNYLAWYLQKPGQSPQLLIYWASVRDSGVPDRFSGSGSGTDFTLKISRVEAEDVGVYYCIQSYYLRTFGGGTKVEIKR | nM | 0.92 |
| 40G5c-hIgG1 (antibody, V domains shown) VH: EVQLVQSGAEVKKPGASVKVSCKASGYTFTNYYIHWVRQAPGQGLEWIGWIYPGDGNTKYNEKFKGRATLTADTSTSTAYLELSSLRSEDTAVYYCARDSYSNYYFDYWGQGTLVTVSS VL: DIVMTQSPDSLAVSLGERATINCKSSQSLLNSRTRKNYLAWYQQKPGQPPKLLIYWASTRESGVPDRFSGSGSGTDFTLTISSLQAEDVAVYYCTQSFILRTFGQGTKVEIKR | nM | 0.89 |

input: Which EC50 is reported for this binder? 6-44.5-H1-L2 humanized antibody (antibody, human IgG1, kappa, V domains shown) VH: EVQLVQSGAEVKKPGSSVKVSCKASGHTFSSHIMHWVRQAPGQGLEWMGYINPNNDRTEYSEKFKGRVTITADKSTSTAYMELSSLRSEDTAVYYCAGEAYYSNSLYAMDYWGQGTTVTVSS VL: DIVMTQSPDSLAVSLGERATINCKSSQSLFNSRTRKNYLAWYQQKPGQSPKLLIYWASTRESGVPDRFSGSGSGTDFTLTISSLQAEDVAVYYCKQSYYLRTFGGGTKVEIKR
output: 0.17

input: Which EC50 is reported for this binder? 8-18.1-H1-L2 humanized antibody (antibody, human IgG1, kappa, V domains shown) VH: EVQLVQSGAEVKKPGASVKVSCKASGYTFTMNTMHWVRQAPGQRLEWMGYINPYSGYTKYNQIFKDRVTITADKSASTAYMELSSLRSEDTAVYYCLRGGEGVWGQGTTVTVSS VL: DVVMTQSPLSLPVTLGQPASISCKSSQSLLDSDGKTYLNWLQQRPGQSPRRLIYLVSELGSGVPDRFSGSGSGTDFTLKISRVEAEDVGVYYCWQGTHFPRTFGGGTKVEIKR
output: 2.84

input: Which EC50 is reported for this binder? 7-35.6-H2-L3 humanized antibody (antibody, human IgG1, lambda, V domains shown) VH: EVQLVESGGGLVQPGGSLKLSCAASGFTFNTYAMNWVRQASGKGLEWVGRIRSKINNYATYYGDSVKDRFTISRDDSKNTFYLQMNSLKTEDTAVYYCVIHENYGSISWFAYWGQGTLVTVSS VL: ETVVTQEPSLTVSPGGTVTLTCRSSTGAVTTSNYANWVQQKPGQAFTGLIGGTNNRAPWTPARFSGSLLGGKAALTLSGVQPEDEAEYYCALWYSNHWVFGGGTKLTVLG
output: 7.84
